Test system: Renilla luciferase RNA
Assay: Barcoded aptazyme variant library screen: un-cleaved Renilla luciferase RNA by barcode read counts, HEK293-T cells
Assay type: cell-based
Conditions: un-cleaved Renilla luciferase RNA, HEK293-T cells cultured with 1 mM theophylline (ON) over without theophylline (OFF); barcode read counts, triplicate
From the text: Based on the findings from Example 1, an aptazyme variant library was generated from the T3H48 ribozyme with one of seven variant theophylline aptamers inserted sequentially after each nucleotide of the DNA sequence encoding the T3H48 ribozyme sequence. […] The seven variant theophylline aptamers vary in their communication channels, which are the ribonucleotides of the aptamer that attach to the ribozyme sequence (see, Table 2). […]
Assign met whenever Fold change in RNA expression between the ON state and the OFF state does not fall below 2 fold; assign not met whenever it does.

Use the examples below as a reference point.
molecule="RA075 (nucleic acid, expressed or natural sequence) DNA: GCGCGTCCTGGATTCGCGGAAACGCGTACATCCAGCTGACGAGTCCCAAATAGGACGAAAGTGATACCAGCATCGTCTTGATGCCCTTGGCAGCACTACGCGC" label_class="not met"
molecule="RA118 (nucleic acid, expressed or natural sequence) DNA: GCGCGTCCTGGATTCGCGGAAACGCGTACATCCAGCTGACGAGTCCCAAATAGGACGAGAGAATACCAGCATCGTCTTGATGCCCTTGGAAGTCTCAACGCGC" label_class="not met"
molecule="RA279 (nucleic acid, expressed or natural sequence) DNA: GCGCGTCCTGGATTCGCGGAAACGCGTACATCCAGCTGACGAGTCCCAAATAGGACGACGAGAATACCAGCATCGTCTTGATGCCCTTGGAAGTCTCGAACGCGC" label_class="not met"
molecule="RA012 (nucleic acid, expressed or natural sequence) DNA: GCGCGTCCTGGATTCGCGGAAACAGAATACCAGCATCGTCTTGATGCCCTTGGAAGTCTGCGTACATCCAGCTGACGAGTCCCAAATAGGACGAAACGCGC" label_class=met
molecule="RA025 (nucleic acid, expressed or natural sequence) DNA: GCGCGTCCCGAGAATACCAGCATCGTCTTGATGCCCTTGGAAGTCTCGTGGATTCGCGGAAACGCGTACATCCAGCTGACGAGTCCCAAATAGGACGAAACGCGC" label_class=met

Please tell me: is the molecule RA192 (nucleic acid, expressed or natural sequence) DNA: GCGCGTCCTGGATTCGCGGAAACGCGTACATCCAGCTGACGAGTCCCAAATGGAATACCAGCATCGTCTTGATGCCCTTGGAAGTCCAGGACGAAACGCGC at or over 2 fold in terms of Fold change in RNA expression between the ON state and the OFF state?
not met

Please tell me: is the molecule RA174 (nucleic acid, expressed or natural sequence) DNA: GCGCGTCCTGGATTCGCGGAAACGCGTACATCCAGCCGGAATACCAGCATCGTCTTGATGCCCTTGGAAGTCCGTGACGAGTCCCAAATAGGACGAAACGCGC at or over 2 fold in terms of Fold change in RNA expression between the ON state and the OFF state?
not met

Please tell me: is the molecule RA293 (nucleic acid, expressed or natural sequence) DNA: GCGGGAATACCAGCATCGTCTTGATGCCCTTGGAAGTCCCGTCCTGGATTCGCGGAAACGCGTACATCCAGCTGACGAGTCCCAAATAGGACGAAACGCGC at or over 2 fold in terms of Fold change in RNA expression between the ON state and the OFF state?
not met

Please tell me: is the molecule RA131 (nucleic acid, expressed or natural sequence) DNA: GCGCGTCCTAGAATACCAGCATCGTCTTGATGCCCTTGGAAGTCTGGATTCGCGGAAACGCGTACATCCAGCTGACGAGTCCCAAATAGGACGAAACGCGC at or over 2 fold in terms of Fold change in RNA expression between the ON state and the OFF state?
not met

Please tell me: is the molecule RA106 (nucleic acid, expressed or natural sequence) DNA: GCGCGTCCTGGATTCGCGGAAACGCGTACATCCAGCTGACCGGAATACCAGCATCGTCTTGATGCCCTTGGAAGTCCGGCGAGTCCCAAATAGGACGAAACGCGC at or over 2 fold in terms of Fold change in RNA expression between the ON state and the OFF state?
not met

Please tell me: is the molecule RA031 (nucleic acid, expressed or natural sequence) DNA: GCGCGTCCGAGAATACCAGCATCGTCTTGATGCCCTTGGAAGTCTCTGGATTCGCGGAAACGCGTACATCCAGCTGACGAGTCCCAAATAGGACGAAACGCGC at or over 2 fold in terms of Fold change in RNA expression between the ON state and the OFF state?
met

Please tell me: is the molecule RA201 (nucleic acid, expressed or natural sequence) DNA: GCGCGTCCTGGATTCGCGGAAACGCGAGAATACCAGCATCGTCTTGATGCCCTTGGAAGTCTCGCGTACATCCAGCTGACGAGTCCCAAATAGGACGAAACGCGC at or over 2 fold in terms of Fold change in RNA expression between the ON state and the OFF state?
not met
